- assay-protocol: qHTS assay for small molecule activators of the p53 signaling pathway (AID 651743); further: series mostly up to about 92 µM; % of control where 0% means no effect
- assay-conditions: HCT-116 p53RE-bla, beta-lactamase FRET ratio, 16 h; hits give high values
Records with an inconclusive call do not appear.
observation-type: activation (%)
API: value field is a number in %; no unit string.

Please look up its activation: OCCOCCN1CCN(C(c2ccccc2)c2ccc(Cl)cc2)CC1 (stereo unspecified)
-1.54

Entry CCCC(=O)c1cc(O)c(O)cc1O has what activation?
-5.77

I would be grateful if you could share the reported activation for CCCCCCCCCCCCCCCC[n+]1ccccc1 .
2.82

Which activation is listed for Brc1ccccc1-c1ccccc1 ?
0.157

Name the reported activation value associated with the compound C1=CC2C3C=CC(C3)C2C1 (stereo unspecified)
-1.4

Field request: activation | item: CN1C(=O)c2ccccc2C1=O
8.47
